test-description: Pharmacokinetics of solid solution capsules in dogs
assay-conditions: male, beagle, dog, in vivo, po, 20 mg, PO 20 mg/dog, capsule in 50:50 macrogol-40-glycerol hydroxystearate:PEG-4000, Average of T1-T3
assay-readout: AUC(0-inf)

1) Cc1ccc(NC(=O)[C@H]2CCCN(C(=O)c3c(C)cccc3F)[C@H]2c2ccc(NC3CCCC3)cc2)cc1C(F)(F)F
1630 ng·h/mL

* * *

test-description: pH solubility profile of Compound 1 in buffers, water, HCl and biorelevant media
Assay type: physicochemical
assay-conditions: Fed-State Simulated Intestinal Fluid (FeSSIF); FeSSIF, pH 5, actual pH 4.98
assay-readout: solubility (µg/mL)

1) Cc1ccc(NC(=O)[C@H]2CCCN(C(=O)c3c(C)cccc3F)[C@H]2c2ccc(NC3CCCC3)cc2)cc1C(F)(F)F
2.09

* * *

test-description: Food effect study (high fat, high calorie meal) in healthy volunteers
Format: in vivo, human
assay-conditions: human, plasma, po, 30 mg, healthy volunteers, 30 mg single oral dose, 50:50 solid solution capsule; Fasted; read-out: AUC0-t, Geometric LSM
assay-readout: AUC(0-t) (ng·h/mL)

1. Cc1ccc(NC(=O)[C@H]2CCCN(C(=O)c3c(C)cccc3F)[C@H]2c2ccc(NC3CCCC3)cc2)cc1C(F)(F)F [Compound 1]
826

* * *

test-description: Pharmacokinetics of solid solution capsule in patients with ANCA associated vasculitis
Type: in vivo, Humans
assay-conditions: human, in vivo, po, 30 mg, AAV patients, 30 mg twice daily oral, 50:50 solid solution capsules; Compound 1 + No Prednisone; read-out: Day 1 Cmax, Mean
Protocol: Solid Solution capsules of Compound 1 comprising 50:50 macrogol-40-glycerol hydroxystearate:PEG-4000 were prepared using the general procedures described in Example 4. Patients with AAV were randomized and double-blind in placebo-controlled clinical trial conducted in a step-wise manner to evaluate the efficacy and safety of Compound 1 formulated in a solid solution as described above with reduced or no prednisone in comparison with the standard of care full dose prednisone. […]
assay-readout: Cmax (ng/mL)

1) Cc1ccc(NC(=O)[C@H]2CCCN(C(=O)c3c(C)cccc3F)[C@H]2c2ccc(NC3CCCC3)cc2)cc1C(F)(F)F
166

* * *

test-description: Pharmacokinetics of solid solution capsules in dogs
assay-conditions: male, beagle, dog, in vivo, po, 20 mg, PO 20 mg/dog, capsule in 100% macrogol-40-glycerol hydroxystearate, trial T1
Procedure: Solid Solution capsules of Compound 1 comprising 50:50 macrogol-40-glycerol hydroxystearate:PEG-4000 or 100% macrogol-40-glycerol hydroxystearate were prepared using the general procedures described in Example 4. The PEG heating steps were omitted for the 100% macrogol-40 glycerol hydroxystearate formulations. These formulations were dosed in beagle dogs (male) at 20 mg per dog to evaluate the pharmacokinetic profile. […]
assay-readout: Tmax (h)

1) Cc1ccc(NC(=O)[C@H]2CCCN(C(=O)c3c(C)cccc3F)[C@H]2c2ccc(NC3CCCC3)cc2)cc1C(F)(F)F
2

* * *

test-description: Pharmacokinetics of solid solution capsules in dogs
assay-conditions: male, beagle, dog, in vivo, po, 20 mg, PO 20 mg/dog, capsule in 50:50 macrogol-40-glycerol hydroxystearate:PEG-4000, trial T3
assay-readout: Tmax (h)

1) Cc1ccc(NC(=O)[C@H]2CCCN(C(=O)c3c(C)cccc3F)[C@H]2c2ccc(NC3CCCC3)cc2)cc1C(F)(F)F
2
